system: Staphylococcus aureus
measured_parameter: MIC (µg/mL)

Worked cases, MIC given:
1. Cc1ccc(OCC(O)CN)c(C2CC3CC2C(C)C3(C)C)c1 (stereo not shown) [Example 12] = 7.5
2. Cc1cc(OCCNCCO)c(C2CC3CCC2(C)C3(C)C)cc1C (stereo not shown) [Example 7] = 10

(I) Cc1cc(OCCN)c(C2CC3CCC2(C)C3(C)C)cc1Cl (stereo not shown) [Example 10]
(II) CC1(C)C2CCC1(C)C(c1ccccc1OCC(O)CN)C2 (stereo not shown) [Example 8]
Q) Of the two listed items, which has the higher MIC? First: I Second: II Write the label of whichever entry you select.
A) II
(II: 20 µg/mL, I: 7.5 µg/mL)

(A) CC1(C)C2CCC1(C)C(c1cc(Br)ccc1OCCN)C2 (stereo not shown) [Example 3]
(B) Cc1cc(OCC(O)CNC(C)C)c(C2CC3CC2C(C)C3(C)C)cc1C (stereo not shown) [Example 6]
Q) Smaller MIC value, A vs B ? Write the label of whichever entry you select.
A) B

###

Measured Coronary output, Duration in mins., listed per entry for reference.
tested on: heart taken from a rabbit; experiment: Coronaro-dilatory effects in vitro on isolated rabbit heart (Langendorff's technique); details: dose 1 μg/cm^3; duration of the variation in coronary output
Output spec: scalar in min, unitless text.

1) Cc1cc(OCC(O)CN)c(C2CC3CC2C(C)C3(C)C)cc1C (stereo not shown) = 2

Q) Fill in reported Coronary output, Duration in mins. for this entry: CC1(C)C2CCC1(C)C(c1cc(Br)ccc1OCCN)C2 (stereo not shown)
A) 3

###

Below are compounds with their MIC as measured on Escherichia coli.
measured_parameter: MIC (µg/mL)

1) CC1(C)C2CCC1(C)C(c1ccccc1OCC(O)CN)C2 (stereo not drawn) = 7.5
2) Cc1cc(OCCN)c(C2CC3CCC2(C)C3(C)C)cc1Br (stereo not drawn) = 10
3) CC1(C)C2CCC1(C)C(c1cc(Br)ccc1OCCN)C2 (stereo not drawn) = 5

(1) Cc1ccc(OCC(O)CN)c(C2CC3CC2C(C)C3(C)C)c1 (stereo not drawn)
(2) Cc1cc(OCCN)c(C2CC3CCC2(C)C3(C)C)cc1C (stereo not drawn)
Q) Smaller MIC value, 1 vs 2 ? Write the label of whichever entry you select.
A) 1
(1: 5 µg/mL, 2: 7.5 µg/mL)

(A) Cc1cc(OCCNCCO)c(C2CC3CCC2(C)C3(C)C)cc1C (stereo not drawn)
(B) Cc1cc(OCC(O)CN)c(C2CC3CCC2(C)C3(C)C)cc1C (stereo not drawn)
Q) Of the two listed items, which has the higher MIC? First: A Second: B Write the label of whichever entry you select.
A) A
(A: 30 µg/mL, B: 5 µg/mL)

(1) Cc1cc(OCCN)c(C2CC3CCC2(C)C3(C)C)cc1Cl (stereo not drawn)
(2) Cc1cc(OCC(O)CN)c(C2CC3CC2C(C)C3(C)C)cc1C (stereo not drawn)
Q) Smaller MIC value, 1 vs 2 ? Write the label of whichever entry you select.
A) 2

###

Below are compounds with their MIC as measured on Staphylococcus aureus.
measured_parameter: MIC (µg/mL)

1. Cc1cc(OCC(O)CN)c(C2CC3CCC2(C)C3(C)C)cc1C (stereo not shown) [Example 4] = 5
2. Cc1cc(OCCN)c(C2CC3CCC2(C)C3(C)C)cc1C (stereo not shown) [Example 1] = 5
3. Cc1cc(OCCN)c(C2CC3CCC2(C)C3(C)C)cc1Br (stereo not shown) [Example 2] = 5
4. Cc1cc(OCC(O)CN)c(C2CC3CC2C(C)C3(C)C)cc1C (stereo not shown) [Example 5] = 5
